Tgt: Mitogen-activated protein kinase 3 (Homo sapiens, UniProt P27361)
Sequence (P27361 whole entry): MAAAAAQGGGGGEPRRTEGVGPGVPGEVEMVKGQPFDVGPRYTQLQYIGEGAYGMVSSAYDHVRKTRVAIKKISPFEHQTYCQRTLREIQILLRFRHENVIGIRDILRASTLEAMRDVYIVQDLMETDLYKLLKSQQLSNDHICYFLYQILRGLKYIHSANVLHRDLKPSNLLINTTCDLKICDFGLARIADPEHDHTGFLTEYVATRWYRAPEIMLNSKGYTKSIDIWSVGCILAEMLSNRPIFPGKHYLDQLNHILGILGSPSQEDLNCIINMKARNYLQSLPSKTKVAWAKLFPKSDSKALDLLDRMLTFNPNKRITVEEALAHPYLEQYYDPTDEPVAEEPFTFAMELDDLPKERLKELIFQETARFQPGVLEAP
Procedure details: Binding affinity to ERK1 (unknown origin) by surface plasmon resonance assay
Readout name: Kd
State the value with its unit after it.

# query: Kd | item Cc1cc(Nc2ncc3c(n2)N(C)C(=O)N(c2cc(NC(=O)c4cccc(C(F)(F)F)c4)ccc2C)C3)n(C)n1 | system: Mitogen-activated protein kinase 3 (Homo sapiens, UniProt P27361)
98 nM

====

Tgt: Toll-like receptor 8 (Homo sapiens)
Procedure details: Agonist activity in TLR8 (unknown origin) expressed in HEK293 cells assessed as induction of NF-kappa activation
Format: cell-based
Readout name: pEC50
Formally, pEC50 is defined as -log10 of the concentration c, with c in mol/L.

Which pEC50 reading was recorded for the molecule CCOC(=O)C1=Cc2ccc(-c3cccc(C#N)c3)cc2N=C(N)C1 ?
7.52

====

Tgt: Toll-like receptor 8 (Homo sapiens, UniProt Q9NR97)
Sequence (Q9NR97 whole entry): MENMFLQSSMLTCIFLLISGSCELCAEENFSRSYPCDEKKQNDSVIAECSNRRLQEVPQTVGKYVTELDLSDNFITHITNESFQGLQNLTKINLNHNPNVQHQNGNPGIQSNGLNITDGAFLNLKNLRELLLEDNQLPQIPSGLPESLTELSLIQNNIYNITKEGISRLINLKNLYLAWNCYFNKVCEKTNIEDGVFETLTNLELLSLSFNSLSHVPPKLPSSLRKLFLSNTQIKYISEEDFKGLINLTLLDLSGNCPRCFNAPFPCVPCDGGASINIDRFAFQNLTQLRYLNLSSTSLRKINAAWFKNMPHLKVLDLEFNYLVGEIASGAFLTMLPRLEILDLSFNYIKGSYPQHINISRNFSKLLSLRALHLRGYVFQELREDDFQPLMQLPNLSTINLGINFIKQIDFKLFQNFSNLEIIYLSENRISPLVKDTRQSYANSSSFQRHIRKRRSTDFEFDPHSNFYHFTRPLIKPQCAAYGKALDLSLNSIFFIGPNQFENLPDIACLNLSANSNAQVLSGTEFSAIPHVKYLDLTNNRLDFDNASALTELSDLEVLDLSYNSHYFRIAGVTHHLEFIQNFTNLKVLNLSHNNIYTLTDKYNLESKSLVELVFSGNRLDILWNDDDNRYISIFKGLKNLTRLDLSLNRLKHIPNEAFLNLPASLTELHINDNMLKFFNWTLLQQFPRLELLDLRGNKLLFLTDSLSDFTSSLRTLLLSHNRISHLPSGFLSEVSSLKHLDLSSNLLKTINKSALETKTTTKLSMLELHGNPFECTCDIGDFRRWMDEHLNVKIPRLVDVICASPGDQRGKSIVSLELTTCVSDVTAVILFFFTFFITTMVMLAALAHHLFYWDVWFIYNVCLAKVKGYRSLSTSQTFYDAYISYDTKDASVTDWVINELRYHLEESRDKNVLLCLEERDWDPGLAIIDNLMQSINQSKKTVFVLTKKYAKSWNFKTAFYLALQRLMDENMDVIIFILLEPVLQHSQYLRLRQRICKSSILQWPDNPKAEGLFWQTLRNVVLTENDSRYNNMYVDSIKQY
Procedure details: Agonist activity at human TLR8 transfected in HEK-Blue hTLR8 cells
Assay type: cell-based
Readout name: EC50 (nM)
Record the value in nM, omitting the unit from your answer.

Which EC50 reading was recorded for the molecule CCOC(=O)C1=Cc2ccc(-c3cccc(C#N)c3)cc2N=C(N)C1 ?
30

====

Procedure details: Binding affinity to RasGAP (unknown origin) by surface plasmon resonance assay
Parameters: species or system Homo sapiens
Readout name: Kd (µM)
Record the value in µM, omitting the unit from your answer.

Which Kd reading was recorded for the molecule Cc1cc(Nc2ncc3c(n2)N(C)C(=O)N(c2cc(NC(=O)c4cccc(C(F)(F)F)c4)ccc2C)C3)n(C)n1 ?
0.212
